Target: TEM-1 (Escherichia coli, UniProt P62593)
Construct: made in house; host or cells: E. coli
Experiment: β-lactamase inhibitory activity, nitrocefin hydrolysis
Assay type: biochemical
Settings: class (A); nitrocefin 200 μM, 30 min pre-incubation, room temperature; read-out: BLA IC50 TEM-1
endpointLabel: IC50 (nM)
Field format: number, assumed nM, no unit text.

Examples from the recorded data:
IN: What value of measured IC50 is listed for NC(=O)[C@@H]1c2c(sc3ccccc23)[C@@H]2CN1C(=O)N2OS(=O)(=O)[O-].[Na+] (relative stereo) [Example 3, sulfate] ?
OUT: 1.3

IN: Item O=C1N2Cc3nc4cnccc4cc3C(C2)N1OS(=O)(=O)[O-].[Na+] (stereo not shown) [Example 5, sulfate] has what recorded IC50?
OUT: 14

IN: Fill blank: measured IC50 of the compound O=C1N2Cc3nc4ccccc4cc3C(C2)N1OS(=O)(=O)[O-].[Na+] (stereo not shown) [Example 4] is ____.
OUT: 36

IN: Endpoint output: IC50 of O=C1N2Cc3c(sc4ccccc34)C(C2)N1OS(=O)(=O)[O-].[Na+] (stereo not shown) [Example 1, sulfate] . Value?
OUT: 0.65

IN: Which measured IC50 value corresponds to CCOC(=O)[C@@H]1c2c(sc3ccccc23)[C@@H]2CN1C(=O)N2OS(=O)(=O)[O-].[Na+] (relative stereo) [Example 2, sulfate] ?
OUT: 0.22

IN: May I ask what IC50 has been recorded for O=C1N2Cc3c(sc4c3CNCC4)C(C2)N1OS(=O)(=O)O (stereo not shown) [Example 8] ?
OUT: 9.6

Now look at this one.
IN: Field request: IC50 | item: CCOC(=O)[C@@H]1c2c(n(C)c3ccccc23)[C@@H]2CN1C(=O)N2OS(=O)(=O)[O-].[Na+] (relative stereo) [Example 6, sulfate]
OUT: 0.2
